System: HXB2-D virus with RT 69S-[S-S]
Experimental protocol: MT-4 cell CPE protection assay, site-directed mutant virus
Assay type: cell-based, HIV-1
Stated conditions: {}
Entries and their measured Fold increase in IC50 follow.

Molecular string	Fold increase in IC50 / fold
O=c1[nH]cnc2c1ncn2[C@H]1CC[C@@H](CO)O1	1.7
Cc1cn([C@H]2C=C[C@@H](CO)O2)c(=O)[nH]c1=O	2.3
Nc1ccn([C@H]2CC[C@@H](CO)O2)c(=O)n1	2.1
Nc1ccn([C@@H]2CS[C@H](CO)O2)c(=O)n1	6.2

====

Tested on: HXB2-D virus with RT 69S-[S-S], 210W, 215Y
Experimental protocol: MT-4 cell CPE protection assay, site-directed mutant virus
Type: cell-based, HIV-1
Stated conditions: {}
Entries and their measured Fold increase in IC50 follow.

Compound	U	Fold increase in IC50
O=c1[nH]cnc2c1ncn2[C@H]1CC[C@@H](CO)O1 [ddI, didanosine]	fold	2.1
Nc1ccn([C@@H]2CS[C@H](CO)O2)c(=O)n1 [3TC, lamivudine]	fold	20
Nc1ccn([C@H]2CC[C@@H](CO)O2)c(=O)n1 [ddC, zalcitabine]	fold	4.2
Cc1cn([C@H]2C=C[C@@H](CO)O2)c(=O)[nH]c1=O [d4T, stavudine]	fold	4.8

meta.source: patent US8563236B2
